- Test system: MCF7
- assay_comment: Antitumor activity against human MCF7 cells assessed as inhibition of cell growth
- Type: functional, cell-based
pIC50: −log10 of the molar value.
measured_quantity: pIC50

Reference set, count: 2
CN1CCN(Cc2ccc(C(=O)Nc3cc(-n4cnc(C#N)c4)cc(C(F)(F)F)c3)cc2)CC1 ... 4.81
Cc1cn(-c2cc(NC(=O)c3ccc(CN4CCN(C)CC4)cc3)ccc2C)cn1 ... < 4.30

// query Respond only with pIC50 recorded for CCN1CCN(Cc2ccc(C(=O)Nc3cc(-n4cnc(C)c4)cc(C(F)(F)F)c3)cc2)CC1
// result < 4.30
